Test system: intact ZIKV particles
method description: Direct ELISA vs intact ZIKV particles
Format: binding
measurement context: dose-response performance of the assay
Exercise: for every item that follows, state its recorded Long-term stability.

For the substance shown here, C6: clamp peptide AGRRP (20) - bridge GPGCCGPG (32) - LRGHA (25) (AGRRPGPGCCGPGLRGHA; C5 Binds to Active Site 2; Bridge peptide; C2 Binds to Active Site 1) , give the reported Long-term stability.
>1 Month

// next record C-KTDAYS (CKTDAYS; X2) [mono-arm hexapeptide with N-terminal cysteine]
>1 Month

// next record C-LRGHA (CLRGHA; P2) [mono-arm pentapeptide with N-terminal cysteine]
>1 Month
